viability, T/C values, listed per item
- Test system: 266295-075-R-J1-PDC spheroid viability
- PROTOCOL DETAILS: Anticancer human tumor 266295-075-R-J1-PDC patient-derived head and neck squamous carcinoma cell line growth inhibition [POLQ]
- CONDITION CONTEXT: second compound 0.1 µM; first compound 0.1 µM; hits give low values; spheroids with HUVEC and MSC

{"MOLECULE": "CCc1cc2c(N3CCc4c(cc(Cn5ccnc5)cc4-c4cn(C)nc4C(F)(F)F)C3=O)cc(C)nc2c(OC)n1 + Cc1cccc(N(C)C(=O)C2C(O)CCN2c2nc(C)cc(C(F)(F)F)c2C#N)c1", "viability, T/C [%]": 90.4}
{"MOLECULE": "O=C(c1cc(Cc2n[nH]c(=O)c3ccccc23)ccc1F)N1CCN(C(=O)C2CC2)CC1 + Nc1ccc(C#CCN(C(=O)Cc2ncc(C(F)(F)F)cc2C(F)(F)F)c2ccc(F)cc2)nn1", "viability, T/C [%]": 88.2}
{"MOLECULE": "CCc1cc2c(N3CCc4c(cc(Cn5ccnc5)cc4-c4cn(C)nc4C(F)(F)F)C3=O)cc(C)nc2c(OC)n1 + COC1C(OC(N)=O)C(O)C(Oc2ccc3c(O)c(NC(=O)c4ccc(O)c(CC=C(C)C)c4)c(=O)oc3c2C)OC1(C)C", "viability, T/C [%]": 102}
{"MOLECULE": "O=c1[nH]cc(F)c(=O)[nH]1 + Nc1ccc(C#CCN(C(=O)Cc2ncc(C(F)(F)F)cc2C(F)(F)F)c2ccc(F)cc2)nn1", "viability, T/C [%]": 116}

###

- System: 266295-075-R-J1-PDC spheroid viability
- PROTOCOL DETAILS: Anticancer human tumor 266295-075-R-J1-PDC cell line growth inhibition [POLQ];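 also: spheroids exposed to compounds for seven days before readout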
- CONDITION CONTEXT: second compound 10 µM; first compound 0.00316 µM; hits give low values; spheroids with HUVEC and MSC
METRIC: viability, T/C (%)

{"COMPOUND": "C=CCn1c(=O)c2cnc(Nc3ccc(N4CCN(C)CC4)cc3)nc2n1-c1cccc(C(C)(C)O)n1 + Nc1ccc(C#CCN(C(=O)Cc2ncc(C(F)(F)F)cc2C(F)(F)F)c2ccc(F)cc2)nn1", "METRIC": "viability, T/C", "UNIT SPEC": "%", "MEASURED": 115}
{"COMPOUND": "CCc1c2c(nc3ccc(O)cc13)-c1cc3c(c(=O)n1C2)COC(=O)[C@]3(O)CC + Nc1ccc(C#CCN(C(=O)Cc2ncc(C(F)(F)F)cc2C(F)(F)F)c2ccc(F)cc2)nn1", "METRIC": "viability, T/C", "UNIT SPEC": "%", "MEASURED": 100}
{"COMPOUND": "C=CCn1c(=O)c2cnc(Nc3ccc(N4CCN(C)CC4)cc3)nc2n1-c1cccc(C(C)(C)O)n1 + Cc1cccc(N(C)C(=O)C2C(O)CCN2c2nc(C)cc(C(F)(F)F)c2C#N)c1", "METRIC": "viability, T/C", "UNIT SPEC": "%", "MEASURED": 137}
{"COMPOUND": "COc1cccc(OCCCN)c1-c1cc(Nc2cnc(C#N)cn2)n[nH]1 + Nc1ccc(C#CCN(C(=O)Cc2ncc(C(F)(F)F)cc2C(F)(F)F)c2ccc(F)cc2)nn1", "METRIC": "viability, T/C", "UNIT SPEC": "%", "MEASURED": 94.6}
{"COMPOUND": "CCc1c2c(nc3ccc(O)cc13)-c1cc3c(c(=O)n1C2)COC(=O)[C@]3(O)CC + COC1C(OC(N)=O)C(O)C(Oc2ccc3c(O)c(NC(=O)c4ccc(O)c(CC=C(C)C)c4)c(=O)oc3c2C)OC1(C)C", "METRIC": "viability, T/C", "UNIT SPEC": "%", "MEASURED": 89.5}
